Value source: PubChem BioAssay (Tox21)

# Test name: qHTS assay to test for compound auto fluorescence at 460 nm (blue) in HEK293 cell free culture (AID 720681)
# Condition: cell-free medium, autofluorescence 405/460 nm (blue); series mostly up to 91.3 µM
Active and inactive are the calls of the source. Calls follow the shape of the dose curve; as a rule, active = well fitted curve in the direction sought with a large enough effect in the repeat runs; inconclusive = weak or mixed curves; inactive = flat fitted curve, though single readings scatter.

>  <Compound>
CCNc1nc(Cl)nc(NC(C)(C)C#N)n1

>  <outcome>
inactive

$$$$
>  <Compound>
ClC(Cl)=C(Cl)C(Cl)=C(Cl)Cl

>  <outcome>
inactive

$$$$
>  <Compound>
C=C(C)C#N

>  <outcome>
inactive

$$$$
>  <Compound>
NC(=O)CN1CCCC1=O

>  <outcome>
inactive

$$$$
>  <Compound>
C[N+](C)(C)C

>  <outcome>
inactive

$$$$
>  <Compound>
CC(C)(c1ccc(OCC2CO2)cc1)c1ccc(OCC2CO2)cc1 (stereo unspecified)

>  <outcome>
inactive

$$$$
>  <Compound>
OCCOCCO

>  <outcome>
inactive

$$$$
>  <Compound>
CCCCOC(=O)COC(=O)c1ccccc1C(=O)OCCCC

>  <outcome>
inactive

$$$$
>  <Compound>
COP(=S)(OC)SCn1nnc2ccccc2c1=O

>  <outcome>
inactive

$$$$
>  <Compound>
N#Cc1nn(-c2c(Cl)cc(C(F)(F)F)cc2Cl)c(N)c1S(=O)C(F)(F)F (stereo unspecified)

>  <outcome>
inactive

$$$$
>  <Compound>
C=CC(Cl)CCl (stereo unspecified)

>  <outcome>
inactive

$$$$
>  <Compound>
CCC[CH2][Sn]([Cl])([CH2]CCC)[CH2]CCC

>  <outcome>
inactive

$$$$
>  <Compound>
C[C@]12CC[C@H]3[C@@H](CCC4=CC(=O)CC[C@@H]43)[C@@H]1CC[C@@H]2O

>  <outcome>
inactive

$$$$
>  <Compound>
[CH3][Sn]([Cl])([Cl])[Cl]

>  <outcome>
inactive

$$$$
>  <Compound>
Cc1ccc([N+](=O)[O-])cc1

>  <outcome>
inactive

$$$$
>  <Compound>
N#Cc1c(Cl)c(Cl)c(Cl)c(C#N)c1Cl

>  <outcome>
inactive

$$$$
>  <Compound>
C[N+](C)(C)CC(=O)[O-]

>  <outcome>
inactive

$$$$
>  <Compound>
Clc1ccc(C(Cl)(Cl)Cl)cc1

>  <outcome>
inactive

$$$$
>  <Compound>
CC(C)Nc1nc(Cl)nc(NC(C)C)n1

>  <outcome>
inactive

$$$$
>  <Compound>
O=[N+]([O-])c1ccc(Nc2ccccc2)cc1

>  <outcome>
inactive

$$$$
>  <Compound>
O=C1C(Cl)=C(Cl)C(=O)c2ccccc21

>  <outcome>
inactive

$$$$

---

# Target desc: Estrogen receptor beta (Homo sapiens) (UniProt Q92731)
# Sequence (Q92731 whole entry, looked up): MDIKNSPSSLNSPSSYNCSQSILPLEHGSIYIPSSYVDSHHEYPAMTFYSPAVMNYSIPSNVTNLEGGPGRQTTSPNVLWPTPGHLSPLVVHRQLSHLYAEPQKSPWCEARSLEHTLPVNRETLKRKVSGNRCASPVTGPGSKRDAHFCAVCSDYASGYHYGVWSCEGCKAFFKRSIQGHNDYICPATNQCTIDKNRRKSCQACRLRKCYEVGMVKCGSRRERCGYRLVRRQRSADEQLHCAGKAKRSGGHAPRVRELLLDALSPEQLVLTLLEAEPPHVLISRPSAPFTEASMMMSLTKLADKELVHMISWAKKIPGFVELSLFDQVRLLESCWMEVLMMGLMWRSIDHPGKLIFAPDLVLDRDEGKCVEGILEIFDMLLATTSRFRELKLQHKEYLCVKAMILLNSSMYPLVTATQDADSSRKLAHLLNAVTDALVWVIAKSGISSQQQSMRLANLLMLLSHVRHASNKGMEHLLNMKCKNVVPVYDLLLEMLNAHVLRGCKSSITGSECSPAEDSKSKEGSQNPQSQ
# Test name: qHTS assay to identify small molecule agonists of the estrogen receptor beta (ER-beta) signaling pathway (AID 1259377)
# Condition: ER-beta-UAS-bla HEK293T, beta-lactamase FRET ratio, 16 h; series mostly up to 92.4 µM
Records with an inconclusive call do not appear. Active and inactive are the calls of the source. Calls follow the shape of the dose curve; as a rule, active = well fitted activation curve with a large enough effect in the signal ratio in the repeat runs (not every such curve was filed as active); inconclusive = weak or mixed curves, or effect the other way; inactive = flat fitted curve, though single readings scatter; the % refers to the signal ratio.
Outcome measure: outcome

>  <Compound>
CC(C)Nc1nc(Cl)nc(NC(C)C)n1

>  <Outcome measure>
outcome

>  <Reported value>
inactive

$$$$
>  <Compound>
OC(c1ccc(Cl)cc1)(c1cncnc1)c1ccccc1Cl (stereo not given)

>  <Outcome measure>
outcome

>  <Reported value>
inactive

$$$$
>  <Compound>
CN(C)c1ccccc1

>  <Outcome measure>
outcome

>  <Reported value>
inactive

$$$$
>  <Compound>
Clc1cccc(Cl)c1

>  <Outcome measure>
outcome

>  <Reported value>
inactive

$$$$
>  <Compound>
CCNCC

>  <Outcome measure>
outcome

>  <Reported value>
inactive

$$$$
>  <Compound>
COc1ccc(CO)cc1

>  <Outcome measure>
outcome

>  <Reported value>
inactive

$$$$
>  <Compound>
CCC[CH2][Sn]([Cl])([Cl])[CH2]CCC

>  <Outcome measure>
outcome

>  <Reported value>
inactive

$$$$
>  <Compound>
CC(C)(O)C(=O)Nc1ccc([N+](=O)[O-])c(C(F)(F)F)c1

>  <Outcome measure>
outcome

>  <Reported value>
inactive

$$$$
>  <Compound>
CC1=C(C(=O)Nc2ccccc2)SCCO1

>  <Outcome measure>
outcome

>  <Reported value>
inactive

$$$$
>  <Compound>
ClC(Cl)(Cl)c1ccccc1

>  <Outcome measure>
outcome

>  <Reported value>
inactive

$$$$
>  <Compound>
O=C1CCCO1

>  <Outcome measure>
outcome

>  <Reported value>
inactive

$$$$
>  <Compound>
Clc1cccc(C(Cl)(Cl)Cl)n1

>  <Outcome measure>
outcome

>  <Reported value>
inactive

$$$$
>  <Compound>
CCCCCCCCCc1ccc(O)cc1

>  <Outcome measure>
outcome

>  <Reported value>
inactive

$$$$
>  <Compound>
CCCCOC(=O)COC(=O)c1ccccc1C(=O)OCCCC

>  <Outcome measure>
outcome

>  <Reported value>
inactive

$$$$
>  <Compound>
CCC/C=N/O

>  <Outcome measure>
outcome

>  <Reported value>
inactive

$$$$
>  <Compound>
Cc1ccc([N+](=O)[O-])cc1

>  <Outcome measure>
outcome

>  <Reported value>
inactive

$$$$
>  <Compound>
CCOP(=S)(OCC)OP(=S)(OCC)OCC

>  <Outcome measure>
outcome

>  <Reported value>
inactive

$$$$
>  <Compound>
COc1ccc(O)c(C(C)(C)C)c1

>  <Outcome measure>
outcome

>  <Reported value>
inactive

$$$$
>  <Compound>
CCCCSP(=O)(SCCCC)SCCCC

>  <Outcome measure>
outcome

>  <Reported value>
inactive

$$$$
>  <Compound>
CCOS(=O)(=O)OCC

>  <Outcome measure>
outcome

>  <Reported value>
inactive

$$$$
>  <Compound>
CCN(CC)C(=O)C(C)Oc1cccc2ccccc12 (stereo not given)

>  <Outcome measure>
outcome

>  <Reported value>
inactive

$$$$
>  <Compound>
CCOP(=O)(OCC)OCC

>  <Outcome measure>
outcome

>  <Reported value>
inactive

$$$$
>  <Compound>
CS(=O)(=O)NC(=O)c1cc(Oc2ccc(C(F)(F)F)cc2Cl)ccc1[N+](=O)[O-]

>  <Outcome measure>
outcome

>  <Reported value>
inactive

$$$$
>  <Compound>
CC(C)COC(=O)c1ccccc1C(=O)OCC(C)C

>  <Outcome measure>
outcome

>  <Reported value>
inactive

$$$$
>  <Compound>
COc1ccc(C=O)cc1OC

>  <Outcome measure>
outcome

>  <Reported value>
inactive

$$$$

---

# Target desc: Estrogen receptor (Homo sapiens)
# Test name: qHTS assay to identify small molecule antagonists of the estrogen receptor alpha (ER-alpha) signaling pathway using the BG1 cell line in the presence of 0.1 nM 17-beta-estradiol (AID 1259244); also: nearly all actives have a fitted effect of over 50% in size
# Condition: VM7Luc4E2 (BG1) ERE-luciferase, antagonist mode, 0.1 nM E2, 22 h; series mostly up to 92.4 µM
# From the text: National Center for Advancing Translational Sciences [NCATS] NIH Chemical Genomics Center [NCGC] U.S. Environmental Protection Agency [EPA] National Institutes of Environmental Health Sciences [NIEHS] National Toxicology Program [NTP] U.S. Food and Drug Administration [FDA] Estrogen receptor (ER), a member of the nuclear hormone receptor plays an important role in development, metabolic homeostasis and reproduction. […]
Records with an inconclusive call do not appear. The source made the active and inactive calls. Calls come from the whole dose curve; as a rule, active = well fitted inhibition curve with a large enough effect in the repeat runs; inconclusive = weak or mixed curves; inactive = no such curve, though single readings can be large or run the other way.
Outcome codes: yes for active, no for inactive

>  <Entry smiles>
C[N+](C)(C)CC(=O)O

>  <Target desc>
Estrogen receptor (Homo sapiens)

>  <Cat>
no

$$$$
>  <Entry smiles>
O=C(O)c1nn(Cc2ccc(Cl)cc2Cl)c2ccccc12

>  <Target desc>
Estrogen receptor (Homo sapiens)

>  <Cat>
no

$$$$
>  <Entry smiles>
CCOP(=S)(OCC)SCSC(C)(C)C

>  <Target desc>
Estrogen receptor (Homo sapiens)

>  <Cat>
no

$$$$
>  <Entry smiles>
CC(C)(c1ccccc1)c1ccc(O)c(C(C)(C)c2ccccc2)c1

>  <Target desc>
Estrogen receptor (Homo sapiens)

>  <Cat>
yes

$$$$
>  <Entry smiles>
C[N+](C)(C)C

>  <Target desc>
Estrogen receptor (Homo sapiens)

>  <Cat>
no

$$$$
>  <Entry smiles>
CNC(=O)Oc1cccc2c1OC(C)(C)C2

>  <Target desc>
Estrogen receptor (Homo sapiens)

>  <Cat>
no

$$$$
>  <Entry smiles>
CC1(C)Cc2cccc(O)c2O1

>  <Target desc>
Estrogen receptor (Homo sapiens)

>  <Cat>
no

$$$$
>  <Entry smiles>
OCCOCCO

>  <Target desc>
Estrogen receptor (Homo sapiens)

>  <Cat>
no

$$$$
>  <Entry smiles>
O=[N+]([O-])/N=C1\NCCN1Cc1ccc(Cl)nc1

>  <Target desc>
Estrogen receptor (Homo sapiens)

>  <Cat>
no

$$$$

---

# Target desc: Luciferin 4-monooxygenase (Photinus pyralis) (UniProt P08659)
# Sequence (P08659 whole entry, looked up): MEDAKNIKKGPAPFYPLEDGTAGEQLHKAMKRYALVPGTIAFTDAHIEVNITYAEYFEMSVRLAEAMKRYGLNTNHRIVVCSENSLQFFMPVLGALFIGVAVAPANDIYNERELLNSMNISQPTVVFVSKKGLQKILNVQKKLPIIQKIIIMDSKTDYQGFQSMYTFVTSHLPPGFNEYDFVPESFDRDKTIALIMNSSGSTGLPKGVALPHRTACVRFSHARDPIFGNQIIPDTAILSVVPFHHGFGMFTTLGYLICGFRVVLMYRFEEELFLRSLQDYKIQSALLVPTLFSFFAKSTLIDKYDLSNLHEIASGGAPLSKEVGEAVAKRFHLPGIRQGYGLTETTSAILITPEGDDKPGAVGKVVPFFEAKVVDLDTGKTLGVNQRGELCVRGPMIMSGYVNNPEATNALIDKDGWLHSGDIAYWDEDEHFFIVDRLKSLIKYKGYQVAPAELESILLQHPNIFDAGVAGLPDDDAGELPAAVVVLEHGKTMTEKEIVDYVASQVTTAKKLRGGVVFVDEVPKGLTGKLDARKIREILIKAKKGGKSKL
# Test name: qHTS assay to identify small molecule inhibitors of firefly luciferase (AID 1224835); also: nearly all actives have a fitted effect of over 25% in size
# Condition: purified P. pyralis luciferase, luminescence inhibition; series mostly up to 115 µM
Inconclusive results are not listed. Active and inactive are the calls of the source. Calls come from the whole dose curve; as a rule, active = well fitted inhibition curve with a large enough effect in the repeat runs; inconclusive = weak or mixed curves; inactive = flat fitted curve, though single readings scatter.
Outcome codes: active, inactive

>  <Compound>
CN(C)P(=O)(N(C)C)N(C)C

>  <Cat>
inactive

$$$$
>  <Compound>
N#Cc1c(Cl)c(Cl)c(Cl)c(C#N)c1Cl

>  <Cat>
inactive

$$$$
>  <Compound>
CCCCCCCC[N+](C)(CCCCCCCC)CCCCCCCC

>  <Cat>
inactive

$$$$
>  <Compound>
Nc1ccc([N+](=O)[O-])cc1N

>  <Cat>
active

$$$$
>  <Compound>
CNC(=O)Oc1cccc2c1OC(C)(C)C2

>  <Cat>
inactive

$$$$
>  <Compound>
CCNc1nc(Cl)nc(NC(C)(C)C#N)n1

>  <Cat>
inactive

$$$$
>  <Compound>
O=[N+]([O-])c1ccc(Cl)c([N+](=O)[O-])c1

>  <Cat>
inactive

$$$$
>  <Compound>
O=NN(c1ccccc1)c1ccccc1

>  <Cat>
inactive

$$$$
>  <Compound>
Nc1ccc2ccccc2c1

>  <Cat>
inactive

$$$$
>  <Compound>
CNC(=S)S

>  <Cat>
inactive

$$$$
>  <Compound>
Oc1ccc(Cl)cc1Cl

>  <Cat>
inactive

$$$$
>  <Compound>
CCCCCCCCCC(CC)c1ccc(S(=O)(=O)O)cc1 (stereo not given)

>  <Cat>
inactive

$$$$
>  <Compound>
C=CC(=O)OCC(CC)(COC(=O)C=C)COC(=O)C=C

>  <Cat>
inactive

$$$$
>  <Compound>
COP(=S)(OC)Oc1ccc(S(=O)(=O)N(C)C)cc1

>  <Cat>
inactive

$$$$
>  <Compound>
CN(C)c1ccccc1

>  <Cat>
inactive

$$$$
>  <Compound>
COc1ccc(C=O)cc1OC

>  <Cat>
inactive

$$$$
>  <Compound>
Cc1ccc([N+](=O)[O-])cc1

>  <Cat>
inactive

$$$$
>  <Compound>
O=C1Nc2ccc(Cl)cc2C(c2ccccc2)=NC1O (stereo not given)

>  <Cat>
inactive

$$$$
>  <Compound>
ClCC(Cl)CCl

>  <Cat>
inactive

$$$$
>  <Compound>
O=C(O)CF

>  <Cat>
inactive

$$$$
